- measuredOn: human siglec12 (human) (UniProt Q96PQ1)
- procedureSummary: FACS U937
measurementLabel: Flow % Gated
# include the unit after the value

Solved entries:
Supply recorded Flow % Gated for S0057 (antibody, V domains shown) VH: QGQLVQSGAEVKKPGASVKVSCKASGYTFNNYGISWVRQAPGQGLEWMGWISAYNGFTRSTQKFQGRVTLTTDTSTSTAHMELRSLRSDDTAAYYCARDGGDGFDPWGQGTLVTVSS VL: EIVLTQSPATLSLSPGERATLSCRASQSVSSFLAWYQQKPGQAPRLLIFDASNRATGIPARFSGSGSGTDFTLTISSLEPEDFAVYYCQQRSNWITFGQGTRLEIKRA here.
79%

Supply recorded Flow % Gated for S0103 (antibody, V domains shown) VH: QVQLVQSGAEVKKPGASVKVSCKASGYTFTSYDINWVRQATGQGLEWMGWMNPNSGNTGYAQNFQGRVTMTRDTSVNTAYMELSSLRSEDTAVYYCARGGPNLVRGVIIRDAFDFWGQGTMVTVSS VL: EIVMTQSPATLSVSPGERATLSCRASQSVSNSFAWYQQKPGQAPRLLIYGAFTRATGIPARFSGSGSGIEFTLTISSLQSEDFAVYYCQQYKTWPLTFGGGTKVEIKR here.
2%

Supply recorded Flow % Gated for S0042 (antibody, V domains shown) VH: QVQLVQSGTEVKKPGASVKVSCKVSGYTLSDLSIHWVRQAPGKGLEWMGGFEPEDGEIIYAQKFQGRVIMTEDTSTDTAYMKLSSLRSEDTAVYYCATDKRYFDWLLSGFDYWGQGTLVTVSS VL: DIQLTQSPSFLSASVGDRVTITCRASQGISSYLAWYQQKPGKAPKLLIFAASTLQSGVPSRFSGSGSGTEFTLTISSLQPEDFATYYCQRLHSYPRTFGQGTKVEIKRA here.
4%

Supply recorded Flow % Gated for S0040 (antibody, V domains shown) VH: QVQLVQSGAEVKKPGASVKVSCKASGYTFTSYDINWVRQATGQGLEWMGWMNPNSGNTGYAQNFQGRVTMTRNTSINTAYMELSSLRSEDTAVYYCTRGGPTLVRGVIIRDAFDFWGQGTMVTVSS VL: EIVMTQSPATLSVSPGERATLSCRASQSVSNSFAWYQQKPGQAPRLLIYGAFTRATGIPARFSGSGSGTEFTLTISSLQSEDFAVYYCQQYKTWPLTFGGGTKVEIKR here.
6%

Continuing:
Supply recorded Flow % Gated for S0023 (antibody, V domains shown) VH: EVQLLESGGGLVQPGGSLRLSCAASGFTFSTFAMSWVRQAPGKGLEWVSTISGGGDSTYYADSVKGRFTISRDNSKNMMSLQMNSLRAVDTAVYYCVKGGGDEYFYYGMDVWGQGTTVTVSS VL: DIQMTQSPSSLSASVGDRVTITCRASQGIRNDLGWYQQKPGKAPKRLIYSASSLQSGVPSRFSGSGSGTEFTLTISSLQPEDFATYYCLQHNSYPYTFGQGTPLDIKR here.
3%
